# maps each entry to its IC50
- System tested: Flt-4 (baculovirus expressed human Flt-4 kinase domain D725-R1298) (Homo sapiens)
- Construct: human Flt-4 kinase domain D725-R1298; host or cells: baculovirus expression
- Sequence (P35916 725-1298 isoform P35916-1): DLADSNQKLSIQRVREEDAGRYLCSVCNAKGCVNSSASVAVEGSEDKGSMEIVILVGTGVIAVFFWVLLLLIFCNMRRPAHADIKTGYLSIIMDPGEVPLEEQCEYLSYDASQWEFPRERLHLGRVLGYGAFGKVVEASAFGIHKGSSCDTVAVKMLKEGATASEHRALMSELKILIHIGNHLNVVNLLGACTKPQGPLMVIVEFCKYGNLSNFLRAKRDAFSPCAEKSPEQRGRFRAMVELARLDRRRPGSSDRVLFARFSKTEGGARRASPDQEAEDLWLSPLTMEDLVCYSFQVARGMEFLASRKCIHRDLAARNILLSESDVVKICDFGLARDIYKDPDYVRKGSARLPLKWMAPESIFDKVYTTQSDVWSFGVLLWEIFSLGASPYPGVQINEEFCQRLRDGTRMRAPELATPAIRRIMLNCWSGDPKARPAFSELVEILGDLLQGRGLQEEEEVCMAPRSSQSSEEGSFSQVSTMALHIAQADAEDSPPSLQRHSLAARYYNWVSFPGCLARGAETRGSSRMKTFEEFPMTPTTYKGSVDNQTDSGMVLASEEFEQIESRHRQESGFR
- Test: flt-4 Alphascreen Tyrosine Kinase assay;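 further: AlphaScreen chemiluminescence read-out of biotinylated poly(Glu,Tyr) 4:1 phosphorylation via streptavidin donor and PY100 anti-phosphotyrosine acceptor beads, ATP near KM, 1 hr kinase reaction, 10-point dose-response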
- Type: biochemical
- Condition notes: read-out: flt4 IC50

The cases that follow already have their IC50 on record.
Compound	System tested	IC50
COc1cc2nccc(Oc3nc(C)c(NC(=O)C4(C(=O)Nc5ccc(F)cc5)CC4)cc3Cl)c2cc1OC [Example 320]	Flt-4 (baculovirus expressed human Flt-4 kinase domain D725-R1298) (Homo sapiens)	500 to 5000 nM
COc1cc2nccc(Oc3ccc(N4CC(Cc5ccccc5)N(S(=O)(=O)c5ccc(C)cc5)C4=O)cc3)c2cc1OC (centres unmarked) [Example 112]	Flt-4 (baculovirus expressed human Flt-4 kinase domain D725-R1298) (Homo sapiens)	500 to 5000 nM
COc1cc2nccc(Oc3ncc(NC(=O)C4(C(=O)NCc5ccccc5)CC4)cc3Cl)c2cc1OC [Example 301]	Flt-4 (baculovirus expressed human Flt-4 kinase domain D725-R1298) (Homo sapiens)	50 to 500 nM
COc1cc2c(Oc3ncc(NC(=O)C4(C(=O)Nc5ccc(F)cc5)CC4)cc3Cl)ccnc2cc1OCC1CCNCC1 [Example 282]	Flt-4 (baculovirus expressed human Flt-4 kinase domain D725-R1298) (Homo sapiens)	< 50 nM
COc1cc2c(Oc3ccc(NC(=O)C(=O)N[C@@H](Cc4ccccc4)C(=O)N4CCCC4)cc3F)ccnc2cc1OCC1CCNCC1 [Example 284]	Flt-4 (baculovirus expressed human Flt-4 kinase domain D725-R1298) (Homo sapiens)	500 to 5000 nM

**Query** Need IC50 of COc1cc2ncnc(Oc3ccc(NC(=O)C4(C(=O)Nc5ccc(F)cc5)CC4)cc3F)c2cc1OCCCN1CCOCC1 [Example 321] , thanks.
**Result** < 50 nM

**Query** Same thing, different compound: COc1cc2c(Oc3ccc(NC(=O)C4(C(=O)Nc5ccc(F)cc5)CC4)c(C)c3)ccnc2cc1OCCCN1CCOCC1 [Example 331]
**Result** < 50 nM

**Query** One more compound: CCN(CC)CCOc1cc2nccc(Oc3ccc(NC(=O)C4(C(=O)Nc5ccc(F)cc5)CC4)cc3F)c2cc1OC [Example 304]
**Result** < 50 nM

**Query** Continue with COc1cc2nccc(Oc3ccc(NC(=O)C4(C(=O)Nc5ccc(F)cc5)CC4)c(C)c3)c2cc1OC [Example 317]
**Result** < 50 nM

**Query** Also, COc1cc2c(Oc3ccc(NC(=O)[C@@]4(C(=O)Nc5ccc(F)cc5)C[C@H]4C)cc3F)ccnc2cc1OCCCN1CCOCC1 [Example 342] please.
**Result** < 50 nM

**Query** Can you check COc1cc2nccc(Oc3c(F)cc(NC(=O)C4(C(=O)Nc5ccc(F)cc5)CC4)cc3F)c2cc1OC [Example 323] next?
**Result** < 50 nM
